# targetSystem: IDH2-R172K (Homo sapiens (Human), UniProt P48735, R172K)
# Sequence (P48735 40-452 R172K): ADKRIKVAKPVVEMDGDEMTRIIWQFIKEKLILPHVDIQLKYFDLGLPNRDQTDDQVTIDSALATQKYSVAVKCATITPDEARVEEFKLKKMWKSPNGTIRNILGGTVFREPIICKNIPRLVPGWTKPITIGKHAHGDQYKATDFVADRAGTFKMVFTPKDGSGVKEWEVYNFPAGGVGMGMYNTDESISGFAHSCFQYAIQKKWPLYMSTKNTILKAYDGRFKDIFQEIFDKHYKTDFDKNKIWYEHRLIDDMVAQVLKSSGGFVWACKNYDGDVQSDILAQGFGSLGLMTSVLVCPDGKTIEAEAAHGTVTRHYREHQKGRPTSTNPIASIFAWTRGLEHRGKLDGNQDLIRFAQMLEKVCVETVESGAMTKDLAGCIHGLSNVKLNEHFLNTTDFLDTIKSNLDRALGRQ
# testMethodNotes: Biochemical assay for IDH2 R172K mutant enzyme (conversion of αKG to 2HG, RapidFire MS)
# conditionSet: IDH2/R172K IC50, 1.2 nM enzyme, 90 minutes, pH 7.0
Under this convention, YES denotes IC50 strictly below 20 nM and NO denotes IC50 at or above 20 nM.

Threshold test, IC50 < 20 nM: C=CC(=O)N1CCN([C@H](CC2CC2)c2ccc([C@H](C)Nc3ncc4c(n3)N(CC)C(=O)OC4)cc2)CC1 [Example 1]
NO

# strict comparison: is reported IC50 < 20 nM? input = C=CC(=O)N1CCN(C(CCOC)c2ccc([C@H](C)Nc3ncc4c(n3)N(CC)C(=O)OC4)cc2)CC1 (single isomer, unassigned) [Example 14]
NO

Answer whether the compound C=CC(=O)N1CCN(C(CC2CC2)c2ccc([C@H](C)Nc3ncc4c(n3)N(C)C(=O)OC4)cc2)CC1 (single isomer, unassigned) [Example 4] has IC50 strictly less than 20 nM
NO

Input C=CC(=O)N1CCN(C(CC2CC2)c2ccc([C@H](C)Nc3ncc4c(n3)N(C)C(=O)OC4)cc2)CC1 (single isomer, unassigned) [Example 3] ; condition: IC50 strictly below 20 nM. Does it hold?
YES

hey, is IC50 for C=CC(=O)N1CCN(C(CC(C)C)c2ccc([C@H](C)Nc3ncc4c(n3)N(CC)C(=O)OC4)cc2)CC1 (single isomer, unassigned) [Example 8] lower than 20 nM or not?
YES

====

# targetSystem: UniProt:P48735
# testMethodNotes: Biochemical assay for wild-type IDH2 enzyme (isocitrate to αKG, LC-MS)
# conditionSet: pH 7.5
measureName: IC50
Mention the unit after the number when you answer.

Known results for compounds:
| compound | targetSystem | IC50 |
| --- | --- | --- |
| C=CC(=O)N1CCN(C(CC2CC2)c2ccc([C@H](C)Nc3ncc4c(n3)N(C)C(=O)OC4)cc2)CC1 (single isomer, unassigned) [Example 3] | UniProt:P48735 | 3.37 µM |
| C=CC(=O)N1CCN(C(CCOC)c2ccc([C@H](C)Nc3ncc4c(n3)N(CC)C(=O)OC4)cc2)CC1 (single isomer, unassigned) [Example 14] | UniProt:P48735 | 7.4 µM |

Which IC50 value is on record for C=CC(=O)N1CCN([C@H](CC2CC2)c2ccc([C@H](C)Nc3ncc4c(n3)N(CC)C(=O)OC4)cc2)CC1 [Example 1] ?
0.801 µM

So what does the record say about IC50 for C=CC(=O)N1CCN(C(CC2CC2)c2ccc([C@H](C)Nc3ncc4c(n3)N(C)C(=O)OC4)cc2)CC1 (single isomer, unassigned) [Example 4] ?
3.7 µM

Could you share which IC50 value was measured for C=CC(=O)N1CCN([C@@H](CC2CC2)c2ccc([C@H](C)Nc3ncc4c(n3)N(CC)C(=O)OC4)cc2)CC1 [Example 2] ?
0.884 µM

====

# targetSystem: IDH2-R140Q (Homo sapiens (Human), UniProt P48735, R140Q)
# Sequence (P48735 40-452 R140Q): as the sequence (P48735 40-452 R172K) above, with R101Q, K133R counted along it
# testMethodNotes: Biochemical assay for IDH2 R140Q mutant enzyme (conversion of αKG to 2HG, RapidFire MS)
# conditionSet: IDH2/R140Q IC50, 1.2 nM enzyme, 90 minutes, pH 7.0
measureName: IC50 (nM)
All answers are understood in nM, so give the number only.

Solved entries:
| compound | IC50, nM |
| --- | --- |
| C=CC(=O)N1CCN([C@H](CC2CC2)c2ccc([C@H](C)Nc3ncc4c(n3)N(CC)C(=O)OC4)cc2)CC1 [Example 1] | 113 |
| C=CC(=O)N1CCN(C(CC2CC2)c2ccc([C@H](C)Nc3ncc4c(n3)N(C)C(=O)OC4)cc2)CC1 (single isomer, unassigned) [Example 3] | 64.8 |
| C=CC(=O)N1CCN(C(CC)c2ccc([C@H](C)Nc3ncc4c(n3)N(CC)C(=O)OC4)cc2)CC1 (single isomer, unassigned) [Example 12] | 134 |
| C=CC(=O)N1CCN(C(CCOC)c2ccc([C@H](C)Nc3ncc4c(n3)N(CC)C(=O)OC4)cc2)CC1 (single isomer, unassigned) [Example 14] | 746 |
| C=CC(=O)N1CCN([C@@H](CC2CC2)c2ccc([C@H](C)Nc3ncc4c(n3)N(CC)C(=O)OC4)cc2)CC1 [Example 2] | 36.9 |

Recorded IC50 for C=CC(=O)N1CCN(C(CC(C)C)c2ccc([C@H](C)Nc3ncc4c(n3)N(CC)C(=O)OC4)cc2)CC1 (single isomer, unassigned) [Example 8] , please?
46
